# Test system: Pseudomonas aeruginosa PA01
# test: Serum MIC, broth micro-dilution
# Assay type: cell-based
# details: Pseudomonas aeruginosa, PA01; 50% v/v mouse serum in Mueller Hinton II cation adjusted Broth, 35° C., 22 hours; Table 4; read-out: P. aeruginosa 01 Serum MIC
quantityName: MIC (µM)
Kindly answer with a numeric value in µM, unit omitted.

compound	u	MIC
Cc1nc(-c2ccc(OCCC(C)(C)C)cc2)nc(N)c1C(=O)N[C@@H](CNS(N)(=O)=O)C(=O)N(C)[C@@H]1C(=O)N[C@@H](C)C(=O)N[C@H](C(=O)O)Cc2ccc(OC[C@H](O)CN)c(c2)-c2cc1cc(OC[C@H](O)CN)c2O [Example 3]	µM	4
C[C@@H]1NC(=O)[C@@H](N(C)C(=O)[C@H](CNS(N)(=O)=O)NC(=O)c2c(N)cc(-c3ccc(C(C)(C)C)cc3)nc2Cl)c2cc(OC[C@H](O)CN)c(O)c(c2)-c2cc(ccc2OC[C@H](O)CN)C[C@@H](C(=O)O)NC1=O [Example 37]	µM	4
C[C@@H]1NC(=O)[C@@H](N(C)C(=O)[C@H](CNS(N)(=O)=O)NC(=O)c2c(N)cc(-c3ccc(C(C)(C)C)cc3O)nc2Cl)c2cc(OC[C@H](O)CN)c(O)c(c2)-c2cc(ccc2OC[C@H](O)CN)C[C@@H](C(=O)O)NC1=O [Example 61]	µM	3

stdin: Any idea what MIC was measured for Cc1nc(-c2ccc(C(C)(C)C)cc2O)nc(N)c1C(=O)N[C@@H](CCN)C(=O)N(C)[C@@H]1C(=O)N[C@@H](C)C(=O)N[C@H](C(=O)O)Cc2ccc(OC[C@H](O)CN)c(c2)-c2cc1cc(OC[C@H](O)CN)c2O [Example 43] ?
stdout: 8
